Task for the reader: assign each of the following compounds its reported acetaldehyde oxidation rate (rate with no test compound assumed as 100%).
subject-of-test: human recombinant ALDH2 enzyme (Homo sapiens)
Construct: purchased BioVision Inc
assay-comment: ALDH2 activation effect (acetaldehyde oxidation rate, PicoProbe Aldehyde dehydrogenase Activity Assay Kit)
Assay type: biochemical
experimental-parameters: concentration of test compound 10 μM
Numbers only; they are read as %.

Bench note: what acetaldehyde oxidation rate (rate with no test compound assumed as 100%) did COCc1ccc(CNC(=O)c2cc(-c3ncccc3C(C)O)ccc2F)cc1F (single isomer, unassigned) [Example 4] show?
131

Please do the same for COCc1ccc(CNC(=O)c2cc(-c3ncccc3C(C)O)ccc2F)cc1F (single isomer, unassigned) [Example 3] as well.
137

Please do the same for COCc1ccc(CNC(=O)c2cc(-c3ncccc3C(C)O)ccc2F)cc1F (racemic) [Example 2] as well.
127

Please do the same for CC(O)c1cccnc1-c1ccc(F)c(C(=O)NCc2ccc(COC(F)F)c(F)c2)c1 (centres unmarked) [Example 5] as well.
124

Please do the same for COCc1ccc(CNC(=O)c2cc(-c3n[nH]cc3CO)ccc2Cl)cc1F [Example 7] as well.
157

Please do the same for COCc1ccc(CNC(=O)c2cc(-c3ncccc3CO)ccc2F)cc1F [Example 1] as well.
196

Please do the same for O=C(NCc1ccc2c(c1)OCO2)c1c(Cl)cccc1Cl [Comparative Example 1, reference compound] as well.
149

Please do the same for COCc1ccc(CNC(=O)c2cc(-c3ncccc3COC)ccc2F)cc1F [Example 6] as well.
139

* * *

assay-comment: Metabolic stability with mouse hepatic microsomes
Assay type: in vitro ADME
experimental-parameters: mouse hepatic microsomes, after 30 minutes, 37° C., NADPH
metric: Residual rate (%) of unchanged form
Numbers only; they are read as %.

Bench note: what Residual rate (%) of unchanged form did COCc1ccc(CNC(=O)c2cc(-c3ncccc3C(C)O)ccc2F)cc1F (single isomer, unassigned) [Example 3] show?
64

Please do the same for COCc1ccc(CNC(=O)c2cc(-c3ncccc3C(C)O)ccc2F)cc1F (single isomer, unassigned) [Example 4] as well.
60

Please do the same for COCc1ccc(CNC(=O)c2cc(-c3ncccc3CO)ccc2F)cc1F as well.
90

Please do the same for COCc1ccc(CNC(=O)c2c(Cl)cccc2Cl)cc1F [Comparative Example 3, reference compound] as well.
1

Please do the same for COCc1ccc(CNC(=O)c2c(F)cccc2F)cc1F [Comparative Example 6, reference compound] as well.
1

Please do the same for CC(O)c1cccnc1-c1ccc(F)c(C(=O)NCc2ccc(COC(F)F)c(F)c2)c1 (stereo not shown) as well.
52

Please do the same for COc1ccc(CNC(=O)c2cc(-c3ncccc3CO)ccc2OCC2CC2)cc1F [Comparative Example 2, reference compound] as well.
6

Please do the same for COCc1ccc(CNC(=O)c2cc(-c3ncccc3COC)ccc2F)cc1F as well.
24

Please do the same for COCc1ccc(CNC(=O)c2cc(-c3ncccc3C(C)O)ccc2F)cc1F (racemic) [Example 2] as well.
68

Please do the same for COCc1ccc(CNC(=O)c2cc(-c3n[nH]cc3CO)ccc2Cl)cc1F as well.
74

* * *

subject-of-test: hERG (human Ether-a-go-go Related Gene) channel (Homo sapiens)
Sequence (Q12809 whole entry): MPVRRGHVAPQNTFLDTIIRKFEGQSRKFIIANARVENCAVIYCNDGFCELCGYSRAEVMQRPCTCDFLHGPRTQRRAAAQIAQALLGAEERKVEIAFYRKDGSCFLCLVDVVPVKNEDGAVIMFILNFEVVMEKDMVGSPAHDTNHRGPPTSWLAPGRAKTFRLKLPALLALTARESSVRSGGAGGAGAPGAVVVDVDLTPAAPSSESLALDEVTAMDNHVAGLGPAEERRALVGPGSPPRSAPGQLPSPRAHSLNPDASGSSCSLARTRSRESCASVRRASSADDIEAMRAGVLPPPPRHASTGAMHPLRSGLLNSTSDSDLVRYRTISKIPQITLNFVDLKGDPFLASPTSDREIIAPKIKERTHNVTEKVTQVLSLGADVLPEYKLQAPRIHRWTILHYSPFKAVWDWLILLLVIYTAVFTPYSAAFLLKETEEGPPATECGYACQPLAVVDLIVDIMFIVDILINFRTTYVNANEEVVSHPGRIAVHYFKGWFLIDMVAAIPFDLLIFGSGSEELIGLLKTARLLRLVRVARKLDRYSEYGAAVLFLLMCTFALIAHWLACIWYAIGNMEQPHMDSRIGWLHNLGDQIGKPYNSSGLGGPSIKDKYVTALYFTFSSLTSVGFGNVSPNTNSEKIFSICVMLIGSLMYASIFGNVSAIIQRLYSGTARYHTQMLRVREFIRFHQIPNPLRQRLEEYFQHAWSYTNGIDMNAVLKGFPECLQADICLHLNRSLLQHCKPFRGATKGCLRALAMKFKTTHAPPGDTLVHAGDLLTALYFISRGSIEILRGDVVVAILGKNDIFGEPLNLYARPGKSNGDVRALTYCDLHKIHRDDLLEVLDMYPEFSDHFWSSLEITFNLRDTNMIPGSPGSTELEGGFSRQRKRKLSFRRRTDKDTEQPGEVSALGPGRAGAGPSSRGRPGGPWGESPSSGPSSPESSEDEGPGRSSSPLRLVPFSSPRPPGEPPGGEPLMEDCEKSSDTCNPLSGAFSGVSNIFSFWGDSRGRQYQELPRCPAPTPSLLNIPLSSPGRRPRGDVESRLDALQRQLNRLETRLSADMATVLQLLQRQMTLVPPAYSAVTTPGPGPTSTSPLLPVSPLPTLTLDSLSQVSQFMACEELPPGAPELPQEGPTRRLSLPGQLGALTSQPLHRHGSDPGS
assay-comment: hERG channel inhibition effect (whole-cell patch clamp)
experimental-parameters: 22 to 25° C.
pIC50: −log10 of the molar value.
metric: pIC50

Recorded pIC50 for COCc1ccc(CNC(=O)c2cc(-c3ncccc3C(C)O)ccc2F)cc1F (racemic) with hERG (human Ether-a-go-go Related Gene) channel (Homo sapiens), please?
< 4.52

Please do the same for COCc1ccc(CNC(=O)c2cc(-c3ncccc3CO)ccc2F)cc1F as well.
< 4.00

* * *

Task for the reader: assign each of the following compounds its reported acetaldehyde oxidation rate (rate with no test compound assumed as 100%).
subject-of-test: human recombinant ALDH2 enzyme (Homo sapiens, UniProt P05091)
Construct: purchased BioVision Inc
Sequence (P05091 18-517): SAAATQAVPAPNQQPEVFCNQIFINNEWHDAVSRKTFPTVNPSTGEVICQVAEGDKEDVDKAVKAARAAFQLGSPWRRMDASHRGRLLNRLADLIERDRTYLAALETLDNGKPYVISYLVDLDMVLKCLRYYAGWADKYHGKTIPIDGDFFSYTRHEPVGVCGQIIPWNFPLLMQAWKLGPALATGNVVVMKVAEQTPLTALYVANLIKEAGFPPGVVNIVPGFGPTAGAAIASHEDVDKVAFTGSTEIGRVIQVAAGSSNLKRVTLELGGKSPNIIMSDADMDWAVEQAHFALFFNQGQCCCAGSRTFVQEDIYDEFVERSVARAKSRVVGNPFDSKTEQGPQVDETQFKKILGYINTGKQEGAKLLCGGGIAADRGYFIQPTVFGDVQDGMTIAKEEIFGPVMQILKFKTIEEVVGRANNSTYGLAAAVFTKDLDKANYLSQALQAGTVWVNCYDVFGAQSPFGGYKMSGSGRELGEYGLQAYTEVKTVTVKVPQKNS
assay-comment: ALDH2 activation effect (acetaldehyde oxidation rate, PicoProbe Aldehyde dehydrogenase Activity Assay Kit)
Assay type: biochemical
experimental-parameters: concentration of test compound 30 μM
Numbers only; they are read as %.

Bench note: what acetaldehyde oxidation rate (rate with no test compound assumed as 100%) did COCc1ccc(CNC(=O)c2cc(-c3ncccc3C(C)O)ccc2F)cc1F (single isomer, unassigned) [Example 4] show?
155

Please do the same for COCc1ccc(CNC(=O)c2cc(-c3n[nH]cc3CO)ccc2Cl)cc1F as well.
170

Please do the same for COCc1ccc(CNC(=O)c2cc(-c3ncccc3COC)ccc2F)cc1F as well.
161

Please do the same for O=C(NCc1ccc2c(c1)OCO2)c1c(Cl)cccc1Cl [Comparative Example 1, reference compound] as well.
176

Please do the same for COCc1ccc(CNC(=O)c2cc(-c3ncccc3C(C)O)ccc2F)cc1F (racemic) [Example 2] as well.
166

Please do the same for CC(O)c1cccnc1-c1ccc(F)c(C(=O)NCc2ccc(COC(F)F)c(F)c2)c1 (centres unmarked) as well.
146

Please do the same for COCc1ccc(CNC(=O)c2cc(-c3ncccc3CO)ccc2F)cc1F as well.
238

Please do the same for COCc1ccc(CNC(=O)c2cc(-c3ncccc3C(C)O)ccc2F)cc1F (single isomer, unassigned) [Example 3] as well.
176

* * *

assay-comment: Metabolic stability with human hepatic microsomes
Type: in vitro ADME
experimental-parameters: human hepatic microsomes 0.1 mg protein/mL, 0.1 μmol/L test compound, after 30 minutes, 37° C.
Task for the reader: assign each of the following compounds its reported Residual rate (%) of unchanged form.
Numbers only; they are read as %.

Bench note: what Residual rate (%) of unchanged form did COCc1ccc(CNC(=O)c2cc(-c3ncccc3CO)ccc2F)cc1F show?
90

Please do the same for COCc1ccc(CNC(=O)c2cc(-c3ncccc3C(C)O)ccc2F)cc1F (racemic) as well.
87

Please do the same for CC(O)c1cccnc1-c1ccc(F)c(C(=O)NCc2ccc(COC(F)F)c(F)c2)c1 (stereo not shown) as well.
72

Please do the same for COCc1ccc(CNC(=O)c2cc(-c3ncccc3COC)ccc2F)cc1F as well.
75

* * *

assay-comment: Metabolic stability with mouse hepatic microsomes
Type: in vitro ADME
experimental-parameters: mouse hepatic microsomes, after 30 minutes, 37° C., NADPH
metric: Residual rate (%) of unchanged form

Bench note: what Residual rate (%) of unchanged form did O=C(NCc1ccc2c(c1)OCO2)c1c(Cl)cccc1Cl [Comparative Example 1, reference compound] show?
<1%

Please do the same for COCc1ccc(CNC(=O)c2c(F)cccc2Br)cc1F [Comparative Example 4, reference compound] as well.
<1%

Please do the same for COCc1ccc(CNC(=O)c2c(F)cccc2Cl)cc1F [Comparative Example 5, reference compound] as well.
<1%
